Cited source: patent US20260098061A1

Readings of pKd for the listed compounds
Biological target: Recombinant Human EphA2 Fc Protein (Homo sapiens)
Assay: SPR interaction analysis (Biacore T200), kinetics of peptides against EphA2
Settings: Recombinant Human EphA2 Fc Protein captured by Human Antibody Capture kit; single-cycle kinetics; 25° C.; HBS-P+ buffer with 1% DMSO
pKd: −log10 of the molar value. Bridge positions count the residues as written; N and C are the ends. Square brackets hold non-standard residues; d marks the D form. Peptide text beside a SMILES is read from it. Trp(1-Me,7-Cl) = Cn1cc(C[C@H](N)C(=O)O)c2cccc(Cl)c21; Ala(2-NH2-4-pyridyl) = Nc1cc(C[C@H](N)C(=O)O)ccn1; dPhe(3-CONH2) = NC(=O)c1cccc(C[C@@H](N)C(=O)O)c1; Trp(1-Me) = Cn1cc(C[C@H](N)C(=O)O)c2ccccc21; NMe3Pal = CN[C@@H](Cc1cccnc1)C(=O)O; NMeF = CN[C@@H](Cc1ccccc1)C(=O)O; hCit = NC(=O)NCCCC[C@H](N)C(=O)O; Gly(cBu) = N[C@H](C(=O)O)C1CCC1
reported.property: pKd

CC(C)C[C@@H]1NC(=O)[C@H](Cc2ccnc(N)c2)NC(=O)[C@H](Cc2ccccc2)NC(=O)CSC[C@@H](C(N)=O)NC(=O)[C@H](Cc2cn(C)c3ccccc23)NC(=O)[C@H](Cc2ccccc2)N(C)C(=O)[C@H](Cc2cn(C)c3ccccc23)NC(=O)[C@H](CCCCNC(N)=O)NC1=O [PDC_EphA2-00020708, F-4Py2NH2-L-Hcit-W1Me-MeF-W1Me-C-NH2] ({CH2CO}-F[Ala(2-NH2-4-pyridyl)]L[hCit][Trp(1-Me)][NMeF][Trp(1-Me)]C-NH2; thioether N-8) = 6.40 to 7.00
CC(C)C[C@@H]1NC(=O)[C@H](CC(N)=O)NC(=O)[C@H](Cc2c[nH]cn2)NC(=O)[C@H](Cc2ccccc2)NC(=O)CSC[C@@H](C(=O)NCC(N)=O)NC(=O)[C@H](Cc2cn(C)c3ccccc23)NC(=O)[C@H](CCCCNC(N)=O)NC(=O)[C@H](Cc2cn(C)c3ccccc23)NC(=O)[C@H](Cc2ccccc2)N(C)C(=O)[C@H](CO)NC1=O [PDC_EphA2-00022606, F-H-N-L-S-MeF-W1Me-Hcit-W1Me-C-G-NH2] ({CH2CO}-FHNLS[NMeF][Trp(1-Me)][hCit][Trp(1-Me)]CG-NH2; thioether N-10) = 7.00 to 8.00
CC(C)C[C@@H]1NC(=O)[C@H](CC(N)=O)NC(=O)[C@H](Cc2cccnc2)N(C)C(=O)[C@@H](Cc2cccc(C(N)=O)c2)NC(=O)CSC[C@@H](C(N)=O)NC(=O)[C@H](Cc2cn(C)c3ccccc23)NC(=O)[C@H](CCCCNC(N)=O)NC(=O)[C@H](Cc2cn(C)c3c(Cl)cccc23)NC(=O)[C@H](Cc2cccnc2)N(C)C(=O)[C@H](CO)NC1=O [PDC_EphA2-00026601] ({CH2CO}-[dPhe(3-CONH2)][NMe3Pal]NLS[NMe3Pal][Trp(1-Me,7-Cl)][hCit][Trp(1-Me)]C-NH2; thioether N-10) = 8.00 to 9.00
CN1C(=O)[C@H](CO)NC(=O)[C@H](C2CCC2)NC(=O)[C@H](CC(N)=O)NC(=O)[C@H](Cc2cccnc2)N(C)C(=O)[C@@H](Cc2cccc(C(N)=O)c2)NC(=O)CSC[C@@H](C(N)=O)NC(=O)[C@H](Cc2cn(C)c3ccccc23)NC(=O)[C@H](CCCCNC(N)=O)NC(=O)[C@H](Cc2cn(C)c3c(Cl)cccc23)NC(=O)[C@@H]1Cc1cccnc1 [PDC_EphA2-00026602] ({CH2CO}-[dPhe(3-CONH2)][NMe3Pal]N[Gly(cBu)]S[NMe3Pal][Trp(1-Me,7-Cl)][hCit][Trp(1-Me)]C-NH2; thioether N-10) = > 9.00
